The origin of these recorded values is patent US20040038855A1.

# assay_target: human NPY1 receptor (Homo sapiens)
# Construct: expressed in transfected cells
# Sequence (P25929 whole entry): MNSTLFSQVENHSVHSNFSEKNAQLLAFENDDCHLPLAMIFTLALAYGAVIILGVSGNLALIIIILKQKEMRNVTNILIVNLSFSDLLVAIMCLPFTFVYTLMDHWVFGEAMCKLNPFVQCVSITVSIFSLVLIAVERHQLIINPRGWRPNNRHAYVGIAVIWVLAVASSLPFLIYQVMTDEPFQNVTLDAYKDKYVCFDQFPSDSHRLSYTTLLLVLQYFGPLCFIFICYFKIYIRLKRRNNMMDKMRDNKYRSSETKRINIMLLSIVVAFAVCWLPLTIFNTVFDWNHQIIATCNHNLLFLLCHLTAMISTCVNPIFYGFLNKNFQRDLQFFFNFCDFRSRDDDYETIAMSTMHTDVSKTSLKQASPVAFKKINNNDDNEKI
# test: Binding affinity at the human NPY1 receptor
# assay_setup: Table 3b; read-out: hNPY1 Ki
experimental_readout: Ki (µM)
# output: bare number, implied unit µM

CCCCN(CCCC)c1ccc(CNC[C@H]2CC[C@H](NC(=O)c3cccc4ccccc34)CC2)cc1: 9.6

Note: attention shifts to another entry.
I'd like to know its Ki. The compound in question is CCCCN(CCCC)c1ccc(CN2CCC(CNC(=O)N3C(=O)NC(C)=C(C(=O)OC)C3c3ccc4nonc4c3)CC2)cc1 (centres unmarked) 6.67

###

# assay_target: human GALR1 receptor (Homo sapiens, UniProt P47211)
# Construct: expressed in transfected cells
# Sequence (P47211 1-349): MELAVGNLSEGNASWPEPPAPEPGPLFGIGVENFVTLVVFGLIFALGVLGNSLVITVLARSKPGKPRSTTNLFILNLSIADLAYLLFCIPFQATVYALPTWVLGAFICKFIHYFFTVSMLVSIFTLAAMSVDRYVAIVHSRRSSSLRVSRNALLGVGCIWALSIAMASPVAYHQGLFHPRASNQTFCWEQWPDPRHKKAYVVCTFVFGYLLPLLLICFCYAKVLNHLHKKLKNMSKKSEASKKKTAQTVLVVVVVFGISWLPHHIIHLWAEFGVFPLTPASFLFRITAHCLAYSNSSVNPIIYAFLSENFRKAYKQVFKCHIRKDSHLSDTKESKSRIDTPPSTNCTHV
# test: Binding affinity at the human GALR1 receptor
# assay_setup: Table 3a; read-out: hGALR1 Ki
pKi: −log10 of the molar value. Structures can show the parent of a compound that is named as a salt.
experimental_readout: pKi

O=C(CCCN1CCC(NC(=O)c2ccccc2)CC1)c1ccc(Cl)cc1: < 4.30
CCCCN(CCCC)c1ccc(CN2CCC(CNC(=O)N3C(=O)NC(C)=C(C(=O)OC)C3c3ccc4nonc4c3)CC2)cc1 (stereo not drawn): 4.96
CCCCN(CCCC)c1ccc(CNC[C@H]2CC[C@H](NC(=O)c3cccc4ccccc34)CC2)cc1: 4.95
COCC1=C(C(=O)OC)[C@H](c2ccc(F)c(F)c2)N(C(=O)NCCCN2CCC(c3cccc(NC(C)=O)c3)CC2)C(=O)N1: < 4.30
COCC1=C(C(=O)OC)C(c2ccc(F)c(F)c2)N(C(=O)NCCCN2CCC(c3cccc4ccccc34)CC2)C(=O)N1 (single isomer, unassigned; (+)): < 4.30
CCC1=C(C(=O)O)C(c2ccc(F)c(F)c2)N(C(=O)NCCCN2CCC3(CC2)OCc2ccccc23)C(=O)N1 (single isomer, unassigned; (+)) [Example 4, HYDROCHLORIDE]: < 4.30
Cc1cc(O)cc(O)c1/C=N/c1ccc(-c2cn3ccccc3n2)cc1: < 4.30
COCC1=C(C(=O)OC)C(c2ccc(F)c(F)c2)N(C(=O)NCCCN2CC=C(c3cccc(NC(C)=O)c3)CC2)C(=O)N1 (stereo not drawn): < 4.30

For human GALR1 receptor (Homo sapiens, UniProt P47211), provide pKi of COCC1=C(C(=O)OC)C(c2ccc(F)c(F)c2)N(C(=O)NCCCN2CCC(c3cccc(NC(C)=O)c3)CC2)C(=O)N1 (single isomer, unassigned; (-)) please. < 4.30

And what about the compound CCN1c2ccc(/C=C3\SC(=S)NC3=O)cc2C(C)=CC1(C)C ? < 4.30

And what about the compound CN1CN(c2ccccc2)C2(CCN(CCCC(=O)c3ccc(F)cc3)CC2)C1=O ? < 4.30

And what about the compound Fc1ccc(C(c2ccc(F)cc2)N2CCN(C/C=C/c3ccccc3)CC2)cc1 ? < 4.30

###

# assay_target: human α1B adrenoceptor (Homo sapiens, UniProt P35368)
# Construct: expressed in transfected cells
# Sequence (P35368 whole entry): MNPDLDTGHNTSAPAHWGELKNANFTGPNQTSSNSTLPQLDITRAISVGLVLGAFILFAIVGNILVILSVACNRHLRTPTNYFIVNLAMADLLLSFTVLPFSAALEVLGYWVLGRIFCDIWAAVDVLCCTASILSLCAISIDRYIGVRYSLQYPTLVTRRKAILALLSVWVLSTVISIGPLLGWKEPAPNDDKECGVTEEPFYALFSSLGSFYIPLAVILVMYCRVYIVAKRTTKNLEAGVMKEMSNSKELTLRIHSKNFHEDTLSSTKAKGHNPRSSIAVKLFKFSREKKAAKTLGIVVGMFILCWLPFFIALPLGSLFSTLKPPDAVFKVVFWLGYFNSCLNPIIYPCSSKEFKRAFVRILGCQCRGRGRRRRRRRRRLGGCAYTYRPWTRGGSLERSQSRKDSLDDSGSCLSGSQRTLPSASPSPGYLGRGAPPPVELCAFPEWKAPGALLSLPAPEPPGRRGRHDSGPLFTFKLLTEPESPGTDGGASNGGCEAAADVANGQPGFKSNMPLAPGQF
# test: Binding affinity at the human α1B adrenergic receptor
# assay_setup: Table 3d; read-out: hα1B Ki
experimental_readout: Ki (nM)
# output: bare number, implied unit nM

For human α1B adrenoceptor (Homo sapiens, UniProt P35368), provide Ki of 2-(3,4-DIFLUOROPHENYL)4,5-DIHYDROIMIDAZOLE-1-CARBOXYLIC ACID {3-[4-PHENYL-4-(4-BROMO-5-METHYLTHIOPNEN-2-YL)]-PROPYL}-AMIDE [Example 19] please. 104

###

Listed below: Ki values for each entry.
# assay_target: human GALR2 receptor (Homo sapiens, UniProt O43603)
# Construct: expressed in transfected cells
# Sequence (O43603 1-387): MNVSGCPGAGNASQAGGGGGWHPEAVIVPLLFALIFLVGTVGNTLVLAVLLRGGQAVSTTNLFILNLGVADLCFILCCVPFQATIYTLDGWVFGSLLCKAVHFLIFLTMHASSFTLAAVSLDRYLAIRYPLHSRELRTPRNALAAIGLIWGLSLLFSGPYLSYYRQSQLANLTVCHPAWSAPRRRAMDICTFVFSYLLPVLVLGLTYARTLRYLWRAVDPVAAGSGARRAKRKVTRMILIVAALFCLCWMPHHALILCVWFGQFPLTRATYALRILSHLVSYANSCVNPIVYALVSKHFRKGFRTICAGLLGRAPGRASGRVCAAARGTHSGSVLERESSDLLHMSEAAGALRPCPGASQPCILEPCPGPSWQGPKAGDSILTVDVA
# test: Binding affinity at the human GALR2 receptor
# assay_setup: Table 3a; read-out: hGALR2 Ki
Structures can show the parent of a compound that is named as a salt.

Example compounds with recorded Ki:
Cc1cc(O)cc(O)c1/C=N/c1ccc(-c2cn3ccccc3n2)cc1: > 50 µM
CN1CN(c2ccccc2)C2(CCN(CCCC(=O)c3ccc(F)cc3)CC2)C1=O: > 50 µM

I'd like to know its Ki. The compound in question is COCC1=C(C(=O)OC)[C@H](c2ccc(F)c(F)c2)N(C(=O)NCCCN2CCC(c3cccc(NC(C)=O)c3)CC2)C(=O)N1 > 50 µM

And what about the compound CCN1c2ccc(/C=C3\SC(=S)NC3=O)cc2C(C)=CC1(C)C ? > 50 µM

And what about the compound COCC1=C(C(=O)OC)C(c2ccc(F)c(F)c2)N(C(=O)NCCCN2CC=C(c3cccc(NC(C)=O)c3)CC2)C(=O)N1 (stereo not drawn) ? > 50 µM

And what about the compound CCC1=C(C(=O)O)C(c2ccc(F)c(F)c2)N(C(=O)NCCCN2CCC3(CC2)OCc2ccccc23)C(=O)N1 (single isomer, unassigned; (+)) [Example 4, HYDROCHLORIDE] ? > 50 µM

And what about the compound Fc1ccc(C(c2ccc(F)cc2)N2CCN(C/C=C/c3ccccc3)CC2)cc1 ? > 50 µM

And what about the compound CCCCN(CCCC)c1ccc(CNC[C@H]2CC[C@H](NC(=O)c3cccc4ccccc34)CC2)cc1 ? 4.73 µM

And what about the compound COCC1=C(C(=O)OC)C(c2ccc(F)c(F)c2)N(C(=O)NCCCN2CCC(c3cccc(NC(C)=O)c3)CC2)C(=O)N1 (single isomer, unassigned; (-)) ? > 50 µM

And what about the compound O=C(CCCN1CCC(NC(=O)c2ccccc2)CC1)c1ccc(Cl)cc1 ? > 50 µM

And what about the compound CCCCN(CCCC)c1ccc(CN2CCC(CNC(=O)N3C(=O)NC(C)=C(C(=O)OC)C3c3ccc4nonc4c3)CC2)cc1 (stereo not drawn) ? 14.9 µM

And what about the compound COCC1=C(C(=O)OC)C(c2ccc(F)c(F)c2)N(C(=O)NCCCN2CCC(c3cccc4ccccc34)CC2)C(=O)N1 (single isomer, unassigned; (+)) ? 42.6 µM

###

# assay_target: rat MCH1 receptor (Rattus norvegicus)
# Construct: expressed in transfected cells
# Sequence (P97639 whole entry): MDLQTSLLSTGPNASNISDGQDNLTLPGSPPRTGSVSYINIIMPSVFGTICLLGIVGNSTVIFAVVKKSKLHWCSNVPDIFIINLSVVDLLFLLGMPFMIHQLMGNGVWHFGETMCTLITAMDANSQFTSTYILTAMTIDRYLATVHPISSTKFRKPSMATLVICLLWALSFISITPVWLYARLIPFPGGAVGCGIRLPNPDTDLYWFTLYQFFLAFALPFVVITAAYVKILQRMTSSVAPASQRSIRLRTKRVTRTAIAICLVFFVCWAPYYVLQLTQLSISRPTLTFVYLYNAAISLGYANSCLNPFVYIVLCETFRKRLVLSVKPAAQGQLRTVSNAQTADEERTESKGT
# test: Binding affinity (Ki) at the rat MCH1 receptor
# assay_setup: Table 3c; read-out: rMCH1 Ki
experimental_readout: log10 Ki (log10 of the value in nM)
Would you kindly interpret these values as log10 of Ki expressed in nM?

Example compounds with recorded log10 Ki:
CC(C)C(=O)Nc1cccc(C2CCN(CC[C@@H](c3ccccc3)N3C(=O)c4ccccc4C3=O)CC2)c1: 1.05
COc1cccc(CN2CCC(c3cccc(NC(=O)C(C)C)c3)CC2)c1: 2.27
COc1ccc(C(=O)CCCN2CCC(c3cccc(NC(C)=O)c3)CC2)c(OC)c1: 2.80
COCC1=C(C(=O)OC)[C@H](c2ccc(F)c(F)c2)N(C(=O)NCCCN2CCC(c3cccc(NC(=O)CC(C)(C)C)c3)CC2)C(=O)N1: 0.43
COc1ccc(O[C@H](CCN2CCC(c3cccc(NC(=O)C(C)C)c3)CC2)c2ccccc2)cc1OC: 0.83
CC(=O)c1ccccc1O[C@@H](CCN1CCC(c2cccc(NC(=O)C(C)C)c2)CC1)c1ccccc1: 1.70
COCC1=C(C(=O)OC)C(c2ccc(F)c(F)c2)N(C(=O)NCCCN2CCC(c3cc(F)ccc3OC)CC2)C(=O)N1 (stereo not shown): 1.11
CC(=O)Nc1cccc(C2CCN(CCCC(=O)c3ccc(Cl)cc3)CC2)c1: 1.84

Note: attention shifts to another entry.
I'd like to know its log10 Ki. The compound in question is CCOc1ccccc1O[C@@H](CCN1CCC(c2cccc(NC(=O)C(C)C)c2)CC1)c1ccccc1 1.16
